Experiment: NCI Yeast Anticancer Drug Screen. Data for the sgs1 mgt1 strain (AID 161);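 note: 0% = growth of cultures given vehicle only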
Settings: S. cerevisiae sgs1 mgt1 strain, at 5.0 µM (retest, dose inferred, filed as 0.5), stronger effect = higher value
About 79,000 compounds went through this panel and 15% of them were active in at least one assay; those are over-represented in the sample as a whole.
measured.metric: growth inhibition (%)
Give bare numbers, in %.

The cases that follow already have their growth inhibition on record.
- molecule: "Nc1c(C(=O)Nc2ccccc2)[n+]([O-])c2ccccc2[n+]1[O-]"
  measured.metric: "growth inhibition"
  measure.unit: "%"
  reported.value: 1
- molecule: "C1CNC(CCNCCSCCNCCC2=NCCN2)=N1"
  measured.metric: "growth inhibition"
  measure.unit: "%"
  reported.value: 5
- molecule: "CCOC(=O)CC1=NC(=Nc2ccc(Cl)c(Cl)c2)SC1"
  measured.metric: "growth inhibition"
  measure.unit: "%"
  reported.value: 0
- molecule: "COc1cccc2c1C(=O)c1c(O)c3c(c(O)c1C2=O)C[C@@](O)(/C(C)=N\\NC(N)=O)C[C@@H]3OC1CC(N)C(O)C(C)O1 (some centres undefined)"
  measured.metric: "growth inhibition"
  measure.unit: "%"
  reported.value: 6
- molecule: "CN(C)CC1(C)CC/C(=C\\c2ccc(Cl)cc2)C1=O (centres undefined)"
  measured.metric: "growth inhibition"
  measure.unit: "%"
  reported.value: 7
- molecule: "O=[N+]([O-])c1ccc(CC(c2ccc([N+](=O)[O-])cc2)(c2ccc([N+](=O)[O-])cc2)c2ccc([N+](=O)[O-])cc2)cc1"
  measured.metric: "growth inhibition"
  measure.unit: "%"
  reported.value: 1
- molecule: "CCN(CC)CCNc1ccc2ncn3c4c(OC)ccc(=O)c4c(O)c1c23"
  measured.metric: "growth inhibition"
  measure.unit: "%"
  reported.value: 3
- molecule: "CC12CCC3C(CCC4CC(O)CCC43C)C1CC=CO2 (centres undefined)"
  measured.metric: "growth inhibition"
  measure.unit: "%"
  reported.value: 17
- molecule: "Cn1ncc2c(Nc3cccc(Cl)c3)nc(Nc3cccc(Cl)c3)nc21"
  measured.metric: "growth inhibition"
  measure.unit: "%"
  reported.value: 27
- molecule: "O=C1c2ccc(O)cc2C(=O)c2c1ccc(O)c2O"
  measured.metric: "growth inhibition"
  measure.unit: "%"
  reported.value: 46

I have 4 molecules here; please give me growth inhibition for each one.
1. C=C(CSCCCCCCCCCCCC)C(=O)O
2. CC(CC(C)[C@H]1CCC2[C@H]3C(CC[C@@]21C)[C@@]1(C)CCC(O)C[C@H]1C[C@@H]3O)C(=O)O (some centres undefined)
3. [O-][n+]1onc2ncccc21
4. O=C1C(Cl)=C(Nc2ccc(S(=O)(=O)Nc3ccccn3)cc2)C(=O)c2ccccc21

98
-4
54
96

* * *

Assay: NCI Yeast Anticancer Drug Screen. Data for the sgs1 mgt1 strain (AID 161);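 note: 0% = growth of cultures given vehicle only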
Conditions: S. cerevisiae sgs1 mgt1 strain, at 50.0 µM (retest, dose inferred, filed as 5.0)
Procedure: Growth inhibition of yeast strains with defined genetic alterations is measured as a screen for potential anti-cancer activity. Selected strains with alterations in DNA damage repair or cell cycle control were exposed to compounds and growth inhibition was measured relative to vehicle treated controls. The strain used in this assay is sgs1 mgt1
The panel holds about 79,000 compounds, 15% with a hit somewhere; the sample as a whole holds those more often. Activity calls are given as the source filed them. Rule as the data show it: active = growth inhibition above about 70%; inactive = the rest.
The categories you may choose from are active, inactive

- smiles.code: "CNc1ccc(F)cc1SSc1cc(F)ccc1NC"
  label: "active"
- smiles.code: "Cc1ccc(N=C2SC(=S)N(CCC[N+](C)(C)C)C2=Nc2ccc(C)cc2)cc1"
  label: "active"
- smiles.code: "Clc1ccc(/C=N\\Nc2c3ccccc3nc3ccccc23)cc1Cl"
  label: "inactive"
- smiles.code: "Nc1ccccc1[S][Sn]([c]1ccccc1)([c]1ccccc1)[c]1ccccc1"
  label: "active"

Lab log entry: COc1cc(OC)c(/C=C\c2ccnc3ccccc23)c(OC)c1 — outcome as called in the assay?
active
